We begin with pIC50 values for Ubiquitin carboxyl-terminal hydrolase 47 (Homo sapiens), as collected from the published literature.
targetOrSystem: Ubiquitin carboxyl-terminal hydrolase 47 (Homo sapiens)
Sequence (Q96K76 whole entry): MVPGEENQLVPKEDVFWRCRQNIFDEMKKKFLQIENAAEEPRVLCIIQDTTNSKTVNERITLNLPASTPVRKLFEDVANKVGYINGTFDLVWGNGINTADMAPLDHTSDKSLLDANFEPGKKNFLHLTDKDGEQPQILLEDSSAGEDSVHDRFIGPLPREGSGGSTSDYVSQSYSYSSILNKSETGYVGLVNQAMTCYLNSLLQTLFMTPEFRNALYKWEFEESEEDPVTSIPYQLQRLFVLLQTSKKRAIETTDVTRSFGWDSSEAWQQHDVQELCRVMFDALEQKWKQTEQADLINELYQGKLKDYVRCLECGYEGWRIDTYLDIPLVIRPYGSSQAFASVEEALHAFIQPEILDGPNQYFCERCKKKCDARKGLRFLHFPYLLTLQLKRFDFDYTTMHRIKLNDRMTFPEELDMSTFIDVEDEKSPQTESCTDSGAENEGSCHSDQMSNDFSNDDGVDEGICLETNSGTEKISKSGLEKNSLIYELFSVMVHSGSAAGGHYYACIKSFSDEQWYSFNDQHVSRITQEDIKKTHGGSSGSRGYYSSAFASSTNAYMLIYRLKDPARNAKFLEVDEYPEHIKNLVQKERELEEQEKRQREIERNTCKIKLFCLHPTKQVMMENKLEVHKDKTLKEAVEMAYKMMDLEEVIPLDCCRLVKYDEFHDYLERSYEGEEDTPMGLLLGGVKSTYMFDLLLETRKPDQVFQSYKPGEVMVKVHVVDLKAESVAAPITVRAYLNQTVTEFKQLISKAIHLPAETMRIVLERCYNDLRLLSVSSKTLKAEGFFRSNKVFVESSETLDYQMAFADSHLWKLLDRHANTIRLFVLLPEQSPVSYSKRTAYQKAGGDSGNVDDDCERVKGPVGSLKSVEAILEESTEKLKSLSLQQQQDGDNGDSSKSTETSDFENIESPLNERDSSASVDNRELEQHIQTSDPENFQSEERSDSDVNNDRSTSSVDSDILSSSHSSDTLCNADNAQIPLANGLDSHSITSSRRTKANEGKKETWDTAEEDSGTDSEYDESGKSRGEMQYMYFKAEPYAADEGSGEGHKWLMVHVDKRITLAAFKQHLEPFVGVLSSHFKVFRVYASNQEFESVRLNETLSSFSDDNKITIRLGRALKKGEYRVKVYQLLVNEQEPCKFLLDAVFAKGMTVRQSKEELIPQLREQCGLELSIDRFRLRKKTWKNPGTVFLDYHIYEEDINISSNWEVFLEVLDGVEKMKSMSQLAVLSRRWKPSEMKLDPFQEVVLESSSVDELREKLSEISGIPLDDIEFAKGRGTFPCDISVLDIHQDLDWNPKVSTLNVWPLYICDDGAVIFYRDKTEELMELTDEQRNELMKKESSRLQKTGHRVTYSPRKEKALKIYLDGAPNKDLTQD
pIC50: −log10 of the molar value.

As a guide, the following entries are already answered.
Give the measured pIC50 of `N#Cc1nc2c(nc1C#N)C1(OCCO1)c1ccccc1-2` . < 4.00

Give the measured pIC50 of `Nc1nc2cc(C3CCNCC3)ccn2c1-c1ccc(O)cc1` . < 4.00

***
Give the measured pIC50 of `CC(=O)NCc1cc2nccc(-c3cc(Cl)cc4c3O[C@@H](C(=O)N3CCNCC3)C4)c2s1` . < 4.10

Give the measured pIC50 of `Cc1cc2nccc(-c3cc(Cl)cc4c3O[C@@H](C(=O)N3CCNCC3)C4)c2s1` . < 4.10

Give the measured pIC50 of `CC(=O)Nc1nc2ccccn2c1-c1ccc(O)cc1` . < 4.00

Give the measured pIC50 of `CNc1nc2ccccn2c1-c1ccc(O)cc1` . < 4.00

Give the measured pIC50 of O=C([C@H]1Cc2cc(Cl)cc(-c3ccnc4cc(C(O)(CO)CCl)sc34)c2O1)N1CCNCC1 (some centres not stated) . < 4.40

Give the measured pIC50 of `Nc1nc2ccccn2c1-c1ccc(O)cc1` . < 4.00

Give the measured pIC50 of `N#Cc1nc2c(nc1N1CCC(F)(F)CC1)-c1ccccc1C2=O` . < 4.00

Give the measured pIC50 of `C[C@H]1[C@H](C)CC[C@]2(C(=O)O)CC[C@]3(C)C(=CC[C@@H]4[C@@]5(C)CC[C@H](O)C(C)(C)[C@@H]5CC[C@]43C)[C@H]12` . 4.59

Give the measured pIC50 of `COc1ccc(-c2c(N)nc3ccccn23)cc1` . < 4.00

Give the measured pIC50 of `N#Cc1nc2c(nc1N)-c1ccccc1C2=O` . < 4.00

Give the measured pIC50 of `O=C([C@H]1Cc2cc(Cl)cc(-c3ccnc4cc(CO)sc34)c2O1)N1CCNCC1` . < 4.40

Give the measured pIC50 of `Nc1nc2cc(C(F)(F)F)ccn2c1-c1ccc(O)cc1` . < 4.00

Give the measured pIC50 of O=C(C1Cc2cc(Cl)cc(-c3ccnc4[nH]ccc34)c2O1)N1CCNCC1 (racemic) . < 4.10
